Recorded pIC50, one value per entry.
- system-name: human recombinant CRF-1 receptor (Homo sapiens, UniProt P34998)
- Sequence (P34998 24-415): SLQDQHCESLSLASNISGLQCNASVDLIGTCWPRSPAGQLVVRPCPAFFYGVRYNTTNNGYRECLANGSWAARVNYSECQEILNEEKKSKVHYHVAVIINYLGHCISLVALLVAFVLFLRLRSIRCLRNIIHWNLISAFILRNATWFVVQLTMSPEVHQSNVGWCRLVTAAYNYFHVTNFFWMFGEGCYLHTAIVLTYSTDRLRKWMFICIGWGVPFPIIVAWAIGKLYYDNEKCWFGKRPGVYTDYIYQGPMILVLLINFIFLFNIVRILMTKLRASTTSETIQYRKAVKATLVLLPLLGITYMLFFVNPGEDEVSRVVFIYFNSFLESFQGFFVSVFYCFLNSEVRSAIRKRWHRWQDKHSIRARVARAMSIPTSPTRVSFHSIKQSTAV
- test: CRF-1 receptor antagonism, HTRF cAMP assay in CHO cells in the presence of 1 nM CRF
- condition-summary: CHO cells expressing human recombinant CRF-1; inhibition of the effect of 1 nM CRF on cAMP
- Source text: The CRF-1 or CRF-2α receptor antagonistic activity of the agents of the invention has been determined in vitro in the following assay: […]
pIC50: −log10 of the molar value.
metric-name: pIC50

CCCc1cc(NC[C@H]2CC[C@H](NC(=O)c3cc(C(F)(F)F)ccc3Cl)CC2)n[nH]1 = 7.21
Cc1cc(NC[C@H]2CC[C@H](NC(=O)c3cc(Cl)cnc3C)CC2)ncc1Cl = 7.42
COc1ncc(Cl)cc1NC[C@H]1CC[C@H](NC(=O)c2cc(C(F)(F)F)ccc2Cl)CC1 = 6.82
Cc1cccc(NC[C@H]2CC[C@H](NC(=O)c3cc(C(F)(F)F)ccc3Cl)CC2)n1 = 7.41
CCCc1cc(NC[C@H]2CC[C@H](NC(=O)c3cc(Cl)cnc3C)CC2)n[nH]1 = 7.01
O=C(N[C@H]1CC[C@H](CNc2nnnn2-c2ccccc2)CC1)c1cc(C(F)(F)F)ccc1Cl = 7.54
O=C(N[C@H]1CC[C@H](Cn2cc3ccccc3n2)CC1)c1cc(C(F)(F)F)ccc1Cl = 6.47
O=C(N[C@H]1CC[C@H](CNc2cncc(F)c2)CC1)c1cc(C(F)(F)F)ccc1Cl = 7.59
Cc1ncc(Cl)cc1C(=O)N[C@H]1CC[C@H](CNc2n[nH]c3c2CCCC3)CC1 = 6.84
Cc1ccc2[nH]nc(NC[C@H]3CC[C@H](NC(=O)c4cc(C(F)(F)F)ccc4Cl)CC3)c2c1 = 7.06
Cc1cc(NC[C@H]2CC[C@H](NC(=O)c3cc(C(F)(F)F)ccc3Cl)CC2)ncc1F = 7.89
O=C(N[C@H]1CC[C@H](CNCc2cc(-c3ccccc3)on2)CC1)c1cc(C(F)(F)F)ccc1Cl = 6.46
Cc1ccc2c(NC[C@H]3CC[C@H](NC(=O)c4cc(C(F)(F)F)ccc4Cl)CC3)n[nH]c2n1 = 7.27
Cc1cccc2[nH]nc(NC[C@H]3CC[C@H](NC(=O)c4cc(C(F)(F)F)ccc4Cl)CC3)c12 = 7.28
Cc1cncc(NC[C@H]2CC[C@H](NC(=O)c3cc(C(F)(F)F)ccc3Cl)CC2)c1 = 7.39

* * *

- system-name: human recombinant CRF-1 receptor (Homo sapiens, UniProt P34998)
- test: CRF-1 receptor antagonism, HTRF cAMP assay in CHO cells in the presence of 1 nM CRF
- condition-summary: CHO cells expressing human recombinant CRF-1; inhibition of the effect of 1 nM CRF on cAMP
pIC50: −log10 of the molar value. Where a name gives a salt, the structure may show the parent alone.
Recorded pIC50, one value per entry.
metric-name: pIC50

CN(Cc1cc(-c2ccccc2)n[nH]1)C[C@H]1CC[C@H](NC(=O)c2cc(Cl)ccc2Cl)CC1 [Example 11] = 6.76
Cc1ncc(Cl)cc1C(=O)N[C@H]1CC[C@H](CNc2nc(C)c(C)s2)CC1 [Example 5.14] = 7.18
Cc1cc(NC[C@H]2CC[C@H](NC(=O)c3cc(C(F)(F)F)ccc3Cl)CC2)n(-c2ccc(Cl)cc2)n1 [Example 19.116] = 7.23
Cc1noc(NC[C@H]2CC[C@H](NC(=O)c3cc(C(F)(F)F)ccc3Cl)CC2)c1C [Example 19.102] = 7.12
O=C(O)c1ccc(NC[C@H]2CC[C@H](NC(=O)c3cc(C(F)(F)F)ccc3Cl)CC2)nc1 [Example 1.33] = 5.19
Cc1[nH]nc(NC[C@H]2CC[C@H](NC(=O)c3cc(C(F)(F)F)ccc3Cl)CC2)c1-c1ccc(Cl)cc1 [Example 19.91] = 7.24
O=C(N[C@H]1CC[C@H](CNc2ccccc2Cl)CC1)c1cc(C(F)(F)F)ccc1Cl [Example 2.26] = 7.20
[2H]C([2H])([2H])c1ncc(NC[C@H]2CC[C@H](NC(=O)c3cc(C(F)(F)F)ccc3Cl)CC2)cc1Cl [Example 19.104] = 7.10
O=C(N[C@H]1CC[C@H](Cn2ccc(-c3ccccc3)n2)CC1)c1cc(C(F)(F)F)ccc1Cl [Example 22.3] = 6.63
Cc1nc(NC[C@H]2CC[C@H](NC(=O)c3cc(Cl)cnc3Cl)CC2)sc1C [Example 1.18] = 7.51
O=C(N[C@H]1CC[C@H](CNc2cccnc2)CC1)c1cc(C(F)(F)F)ccc1Cl [Example 4.21] = 7.12
CCc1[nH]nc(NC[C@H]2CC[C@H](NC(=O)c3cc(C(F)(F)F)ccc3Cl)CC2)c1C [Example 19.117] = 7.37
Cc1ncc(Cl)cc1C(=O)N[C@H]1CC[C@H](Cn2nc(C)c(Cl)c2C)CC1 [Example 17] = 7.15
Cc1cccnc1NC[C@H]1CC[C@H](NC(=O)c2cc(C(F)(F)F)ccc2Cl)CC1 [Example 1] = 7.42
Cc1ncc(Cl)cc1C(=O)N[C@H]1CC[C@H](CNc2ccc(F)cn2)CC1 [Example 19.108] = 7.14
O=C(N[C@H]1CC[C@H](CNc2n[nH]cc2-c2ccc(Cl)cc2)CC1)c1cc(C(F)(F)F)ccc1Cl [Example 19.80] = 7.82
CN(C)Cc1ccc(NC[C@H]2CC[C@H](NC(=O)c3cc(C(F)(F)F)ccc3Cl)CC2)nc1 [Example 1.34, hydrochloride] = 5.91
Cc1ncc(Cl)cc1C(=O)N[C@H]1CC[C@H](Cn2nc(C(F)(F)F)cc2C)CC1 [Example 22.7] = 6.73
CCc1cncc(NC[C@H]2CC[C@H](NC(=O)c3cc(C(F)(F)F)ccc3Cl)CC2)c1 [Example 19.53] = 7.55
CC(Nc1ccccc1)[C@H]1CC[C@H](NC(=O)c2cc(C(F)(F)F)ccc2Cl)CC1 (stereo partly drawn) [Example 15] = 6.97
Cc1n[nH]c(NC[C@H]2CC[C@H](NC(=O)c3cc(C(F)(F)F)ccc3Cl)CC2)c1Cl [Example 19.114] = 7.47
COc1ncc(C)cc1NC[C@H]1CC[C@H](NC(=O)c2cc(C(F)(F)F)ccc2Cl)CC1 [Example 19.56] = 7.08
O=C(N[C@H]1CC[C@H](CNc2cccc3ncccc23)CC1)c1cccc(C(F)(F)F)c1 [Example 13] = 7.15
Cc1ncc(Cl)cc1NC[C@H]1CC[C@H](NC(=O)c2cc(C(F)(F)F)ccc2Cl)CC1 [Example 19.73] = 7.72
Cc1ncc(NC[C@H]2CC[C@H](NC(=O)c3cc(C(F)(F)F)ccc3Cl)CC2)cc1Cl [Example 19.75] = 7.27
O=C(N[C@H]1CC[C@H](CNc2ccccc2)CC1)c1cccc(Cl)c1 [Example 12] = 6.86
O=C(N[C@H]1CC[C@H](CNc2n[nH]c3ccc(Cl)cc23)CC1)c1cc(C(F)(F)F)ccc1Cl [Example 19.66] = 7.21
C[C@@H]1C[C@@H](NC(=O)c2cc(C(F)(F)F)ccc2Cl)CC[C@@H]1CNc1cc(-c2ccc(F)cc2)[nH]n1 (racemic) [Example 1.35a] = 6.70
O=C(N[C@H]1CC[C@H](CNc2n[nH]c3cccc(F)c23)CC1)c1cc(C(F)(F)F)ccc1Cl [Example 19.63] = 7.77
O=C(N[C@H]1CC[C@H](CNc2cc(-c3ccc(F)cc3)n[nH]2)CC1)c1cc(C(F)(F)F)ccc1Cl [Example 4.11] = 7.21

* * *

Recorded IC50, one value per entry.
- system-name: human recombinant CRF-1 receptor (Homo sapiens, UniProt P34998)
- Sequence (P34998 24-415): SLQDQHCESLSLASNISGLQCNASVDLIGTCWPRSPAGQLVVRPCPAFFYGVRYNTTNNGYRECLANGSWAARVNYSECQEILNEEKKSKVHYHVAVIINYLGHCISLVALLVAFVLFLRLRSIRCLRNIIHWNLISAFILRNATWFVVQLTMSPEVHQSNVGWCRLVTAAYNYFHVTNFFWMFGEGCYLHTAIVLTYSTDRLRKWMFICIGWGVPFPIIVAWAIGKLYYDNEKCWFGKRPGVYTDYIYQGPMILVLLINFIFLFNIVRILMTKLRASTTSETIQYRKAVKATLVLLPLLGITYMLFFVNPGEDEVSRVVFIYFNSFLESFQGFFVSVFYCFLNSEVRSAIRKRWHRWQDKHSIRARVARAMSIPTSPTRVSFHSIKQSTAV
- test: CRF-1 receptor antagonism, HTRF cAMP assay in CHO cells in the presence of 1 nM CRF
- condition-summary: CHO cells expressing human recombinant CRF-1; inhibition of the effect of 1 nM CRF on cAMP
metric-name: IC50 (µM)

O=C(N[C@H]1CC[C@H](CNc2n[nH]c3ccc(F)cc23)CC1)c1cc(C(F)(F)F)ccc1Cl = 0.09
Cc1cnc(NC[C@H]2CC[C@H](NC(=O)c3cc(C(F)(F)F)ccc3Cl)CC2)s1 = 0.036
O=C(N[C@H]1CC[C@H](CNc2ccc(F)cn2)CC1)c1cc(C(F)(F)F)ccc1Cl = 0.023
Cc1cc(NC[C@H]2CC[C@H](NC(=O)c3cc(Cl)cnc3C)CC2)ncc1F = 0.062
CC(C)c1cc(NC[C@H]2CC[C@H](NC(=O)c3cc(C(F)(F)F)ccc3Cl)CC2)n[nH]1 = 0.063
Cc1cc(C)n(C[C@H]2CC[C@H](NC(=O)c3cc(Cl)cnc3C)CC2)n1 = 0.35
Cc1ccncc1NC[C@H]1CC[C@@H](NC(=O)c2cc(C(F)(F)F)ccc2Cl)CC1 = 2.21
O=C(N[C@H]1CC[C@H](CNc2n[nH]c3cccnc23)CC1)c1cc(C(F)(F)F)ccc1Cl = 0.069
